Provide the recorded IC50 for the entries that follow.
molecular target: Replicase polyprotein 1ab (Severe acute respiratory syndrome coronavirus 2, UniProt P0DTD1)
Answers are plain numbers, in nM.

O=C(/C=C/c1ccc(Cl)cc1Cl)N[C@@H](CC1CC1)C(=O)NC(C[C@@H]1CCNC1=O)C(=O)C(=O)NC1CC1 (stereo partly specified) [WO2022129953, Example 25] : 10
CC(C)(C)C[C@H](NC(=O)/C=C/c1ccc(Cl)cc1Cl)C(=O)NC(C[C@@H]1CCNC1=O)C(=O)C(=O)C#N (stereo partly specified) [WO2022129953, Example 9] : 398
CCNC(=O)C(=O)C(C[C@@H]1CCNC1=O)NC(=O)[C@H](CC(C)(C)C)NC(=O)/C=C/c1ccc(Cl)cc1F (stereo partly specified) [WO2022129953, Example 23] : 13
CC(C)(C)C[C@H](NC(=O)/C=C/c1ccc(Cl)cc1F)C(=O)NC(C[C@@H]1CCNC1=O)C(=O)C(N)=O (stereo partly specified) [WO2022129953, Example 22] : 6.31
CC[C@@H](CC(=O)N[C@@H](CC(C)(C)C)C(=O)NC(C[C@@H]1CCNC1=O)C(=O)C(=O)NC1CC1)c1ccccc1 (stereo partly specified) [WO2022129953, Example 14] : 7.9

Please report IC50 for the following molecule: O=C(CCc1ccc(Cl)cc1Cl)N[C@@H](CC1CC1)C(=O)NC(C[C@@H]1CCNC1=O)C(=O)C(=O)NC1CC1 (stereo partly specified) [WO2022129953, Example 30] 20

---

target: Replicase polyprotein 1ab (Severe acute respiratory syndrome coronavirus 2)
Value Kind: pIC50
One number for each entry, as −log10 of the molar value.

NC(=O)C(=O)C(C[C@@H]1CCNC1=O)NC(=O)[C@H](CC1CC1)NC(=O)/C=C/c1ccc(Cl)cc1Cl (stereo partly drawn) : 7.00

Could you report pIC50 for every entry in the following list?
1. CC(C)(C)C[C@H](NC(=O)C[C@H](c1ccccc1)C(F)(F)F)C(=O)NC(C[C@@H]1CCNC1=O)C(=O)C(=O)NC1CC1 (stereo partly drawn)
2. CC[C@H](CC(=O)N[C@@H](CC(C)(C)C)C(=O)NC(C[C@@H]1CCNC1=O)C(=O)C(=O)NC1CC1)c1ccccc1 (stereo partly drawn)
3. C[C@H](CC(=O)N[C@@H](CC(C)(C)C)C(=O)NC(C[C@@H]1CCNC1=O)C(=O)C(=O)NC1CC1)c1ccccc1 (stereo partly drawn)
4. CC(C)(C)NC(=O)C(=O)C(CC1CCNC1=O)NC(=O)[C@H](CC1CC1)NC(=O)/C=C/c1ccc(Cl)cc1F (stereo partly drawn)
5. O=C(/C=C/c1ccc(Cl)cc1F)N[C@@H](CC1CCC1)C(=O)NC(C[C@@H]1CCNC1=O)C(=O)C(=O)NC1CC1 (stereo partly drawn)
6. CC(C)(C)C[C@H](NC(=O)/C=C/c1ccc(Cl)cc1Cl)C(=O)NC(C[C@@H]1CCNC1=O)C(=O)C(=O)NC1CC1 (stereo partly drawn)
7. NC(=O)C(=O)C(CC1CCCC1)NC(=O)[C@H](CC1CC1)NC(=O)/C=C/c1ccccc1 (stereo partly drawn)
8. NC(=O)/C(=N\O)C(C[C@@H]1CCNC1=O)NC(=O)[C@H](CC1CC1)NC(=O)/C=C/c1ccccc1 (stereo partly drawn)

1. 7.89
2. 8.00
3. 7.80
4. 6.30
5. 7.60
6. 8.20
7. 5.10
8. 6.00
